Experiment: particle size and polydispersity index of drug micelles over time (ZetaSizer)
Type: physicochemical
Settings: docetaxel:compound 1:3, docetaxel 0.5 mg/mL; time 1 h
Description: Micellar size was measured using a ZetaSizer from Malvern Panalytical. A stock solution of docetaxel in methanol was mixed with a stock solution of compound 1 in a round bottom flask. The mixture was evaporated to dryness in a rotary evaporator. Final drying was performed in a desiccator to remove residual solvent. Hydration of the dried film was performed by adding water for injection (1.0 mL) to a concentration of 1 mg/mL of docetaxel. […]
PARAMETER MEASURED: Polydispersity index

Known Polydispersity index results, listed for orientation:
- SMILES: "COc1cc(C)c(/C=C/C(C)=C/C=C/C(C)=C/C(=O)N2CCN(C(=O)c3ccc(S(=O)(=O)[O-])cc3)CC2)c(C)c1C.[K+]"
  VALUE OBSERVED: 0.20
- SMILES: "COc1cc(C)c(/C=C/C(C)=C/C=C/C(C)=C/C(=O)N2CCC(CCS(=O)(=O)[O-])CC2)c(C)c1C.[Na+]"
  VALUE OBSERVED: 0.15
- SMILES: "COc1cc(C)c(/C=C/C(C)=C/C=C/C(C)=C/C(=O)N2CCN(c3ccc(S(=O)(=O)[O-])cc3)CC2)c(C)c1C.[Na+]"
  VALUE OBSERVED: 0.28

A. COc1cc(C)c(/C=C/C(C)=C/C=C/C(C)=C/C(=O)N(C)CCS(=O)(=O)[O-])c(C)c1C.[Na+]
B. COc1cc(C)c(/C=C/C(C)=C/C=C/C(C)=C/C(=O)N(C)[C@H]2CC[C@H](CS(=O)(=O)[O-])CC2)c(C)c1C.[Na+]
C. COc1cc(C)c(/C=C/C(C)=C/C=C/C(C)=C/C(=O)N(CCS(=O)(=O)[O-])CC(N)=O)c(C)c1C.[Na+]
Task: List from greatest to least Polydispersity index. Form entry: labels listed in requested order.
Output: B, C, A
(B: 0.24, C: 0.16, A: 0.11)

###

assay: particle size and polydispersity index of drug micelles over time (ZetaSizer); type: physicochemical; details: docetaxel:compound 1:3, docetaxel 0.5 mg/mL; time 1 h
PARAMETER MEASURED: Particle size (nm)

- SMILES: "COc1cc(C)c(/C=C/C(C)=C/C=C/C(C)=C/C(=O)N(C)[C@H]2CC[C@H](CS(=O)(=O)[O-])CC2)c(C)c1C.[Na+]"
  UNITS LABEL: "nm"
  Particle size: 97.60

1. COc1cc(C)c(/C=C/C(C)=C/C=C/C(C)=C/C(=O)N2CCN(C(=O)c3ccc(S(=O)(=O)[O-])cc3)CC2)c(C)c1C.[K+]
2. COc1cc(C)c(/C=C/C(C)=C/C=C/C(C)=C/C(=O)N(CCS(=O)(=O)[O-])CC(N)=O)c(C)c1C.[Na+]
Task: Task for the reader: decide whether 1 or 2 has the larger Particle size. Return value: the label identifying the chosen record.
Output: 1

###

assay: particle size and polydispersity index of drug micelles over time (ZetaSizer); format: physicochemical; details: docetaxel:compound 1:3, docetaxel 0.5 mg/mL; time 0 h
PARAMETER MEASURED: Polydispersity index

- SMILES: "COc1cc(C)c(/C=C/C(C)=C/C=C/C(C)=C/C(=O)N(CCS(=O)(=O)[O-])CC(N)=O)c(C)c1C.[Na+]"
  VALUE OBSERVED: 0.17

a. COc1cc(C)c(/C=C/C(C)=C/C=C/C(C)=C/C(=O)N2CCN(C(=O)c3ccc(S(=O)(=O)[O-])cc3)CC2)c(C)c1C.[K+]
b. COc1cc(C)c(/C=C/C(C)=C/C=C/C(C)=C/C(=O)N(C)CCS(=O)(=O)[O-])c(C)c1C.[Na+]
Task: Smaller Polydispersity index value, a vs b ? Return value: the label identifying the chosen record.
Output: b

###

assay: particle size and polydispersity index of drug micelles over time (ZetaSizer); type: physicochemical; conditions: docetaxel:compound 1:3, docetaxel 0.5 mg/mL; time 4 h
PARAMETER MEASURED: Particle size (nm)

- SMILES: "COc1cc(C)c(/C=C/C(C)=C/C=C/C(C)=C/C(=O)N(CCS(=O)(=O)[O-])CC(N)=O)c(C)c1C.[Na+]"
  Particle size (nm): 82.19
- SMILES: "COc1cc(C)c(/C=C/C(C)=C/C=C/C(C)=C/C(=O)N2CCC(CCS(=O)(=O)[O-])CC2)c(C)c1C.[Na+]"
  Particle size (nm): 83.10
- SMILES: "COc1cc(C)c(/C=C/C(C)=C/C=C/C(C)=C/C(=O)N2CCN(c3ccc(S(=O)(=O)[O-])cc3)CC2)c(C)c1C.[Na+]"
  Particle size (nm): 67.34

###

test: particle size and polydispersity index of drug micelles over time (ZetaSizer); type: physicochemical; conditions: docetaxel:compound 1:3, docetaxel 0.5 mg/mL; time 24 h
PARAMETER MEASURED: Polydispersity index

Known Polydispersity index results, listed for orientation:
- SMILES: "COc1cc(C)c(/C=C/C(C)=C/C=C/C(C)=C/C(=O)N2CCN(C(=O)c3ccc(S(=O)(=O)[O-])cc3)CC2)c(C)c1C.[K+]"
  Polydispersity index: 0.22
- SMILES: "COc1cc(C)c(/C=C/C(C)=C/C=C/C(C)=C/C(=O)N(CCS(=O)(=O)[O-])CC(N)=O)c(C)c1C.[Na+]"
  Polydispersity index: 0.14
- SMILES: "COc1cc(C)c(/C=C/C(C)=C/C=C/C(C)=C/C(=O)N(C)CCS(=O)(=O)[O-])c(C)c1C.[Na+]"
  Polydispersity index: 0.14

A. COc1cc(C)c(/C=C/C(C)=C/C=C/C(C)=C/C(=O)N2CCN(c3ccc(S(=O)(=O)[O-])cc3)CC2)c(C)c1C.[Na+]
B. COc1cc(C)c(/C=C/C(C)=C/C=C/C(C)=C/C(=O)N2CCC(CCS(=O)(=O)[O-])CC2)c(C)c1C.[Na+]
C. COc1cc(C)c(/C=C/C(C)=C/C=C/C(C)=C/C(=O)N(C)[C@H]2CC[C@H](CS(=O)(=O)[O-])CC2)c(C)c1C.[Na+]
Task: List from greatest to least Polydispersity index. Form entry: labels listed in requested order.
Output: A, C, B
(A: 0.38, C: 0.26, B: 0.16)

###

test: particle size and polydispersity index of drug micelles over time (ZetaSizer); format: physicochemical; conditions: docetaxel:compound 1:3, docetaxel 0.5 mg/mL; time 6 h
PARAMETER MEASURED: Particle size (nm)

- COMPOUND: "COc1cc(C)c(/C=C/C(C)=C/C=C/C(C)=C/C(=O)N(C)CCS(=O)(=O)[O-])c(C)c1C.[Na+] [Compound 3]"
  Particle size (nm): 10.25
- COMPOUND: "COc1cc(C)c(/C=C/C(C)=C/C=C/C(C)=C/C(=O)N(CCS(=O)(=O)[O-])CC(N)=O)c(C)c1C.[Na+] [Compound 5]"
  Particle size (nm): 87.95
- COMPOUND: "COc1cc(C)c(/C=C/C(C)=C/C=C/C(C)=C/C(=O)N(C)[C@H]2CC[C@H](CS(=O)(=O)[O-])CC2)c(C)c1C.[Na+] [Compound 7]"
  Particle size (nm): 99.12

I. COc1cc(C)c(/C=C/C(C)=C/C=C/C(C)=C/C(=O)N2CCN(c3ccc(S(=O)(=O)[O-])cc3)CC2)c(C)c1C.[Na+] [Compound 6]
II. COc1cc(C)c(/C=C/C(C)=C/C=C/C(C)=C/C(=O)N2CCN(C(=O)c3ccc(S(=O)(=O)[O-])cc3)CC2)c(C)c1C.[K+] [Compound 9]
Task: Smaller Particle size value, I vs II ? Return value: the label identifying the chosen record.
Output: I

###

assay: particle size and polydispersity index of drug micelles over time (ZetaSizer); type: physicochemical; conditions: docetaxel:compound 1:3, docetaxel 0.5 mg/mL; time 6 h
PARAMETER MEASURED: Polydispersity index

- COMPOUND: "COc1cc(C)c(/C=C/C(C)=C/C=C/C(C)=C/C(=O)N2CCN(c3ccc(S(=O)(=O)[O-])cc3)CC2)c(C)c1C.[Na+] [Compound 6]"
  PARAMETER MEASURED: "Polydispersity index"
  VALUE OBSERVED: 0.28
- COMPOUND: "COc1cc(C)c(/C=C/C(C)=C/C=C/C(C)=C/C(=O)N(C)[C@H]2CC[C@H](CS(=O)(=O)[O-])CC2)c(C)c1C.[Na+] [Compound 7]"
  PARAMETER MEASURED: "Polydispersity index"
  VALUE OBSERVED: 0.25
- COMPOUND: "COc1cc(C)c(/C=C/C(C)=C/C=C/C(C)=C/C(=O)N(C)CCS(=O)(=O)[O-])c(C)c1C.[Na+] [Compound 3]"
  PARAMETER MEASURED: "Polydispersity index"
  VALUE OBSERVED: 0.27

// data source = patent US20260337156A1
